Assay: MTT cell viability assay
Assay type: cell-based, human
Details: human; 20 μM, all tumor cell lines examined; read-out: loss of cell viability
Description: Cell viability assays were performed using an MTT (methyl thiazolyl tetrazolium) colorimetric assay (Roche Applied Science, Cat. No. 11 465 007 001), with the following modifications. […] The metabolized insoluble formazan crystals were then solubilized using 0.5 ml of the Solubilization solution (10% SDS in 0.01M HCl) per well, and the resulting colored solutions were spectrophotometrically quantified at an absorbance of 570 nm.
observable: cytotoxicity at 20 μM

Suppose we examine the molecule NS(=O)(=O)C#Cc1ccccc1 [PES, 2-Phenylethynesulfonamide] ; what cytotoxicity at 20 μM value has been reported? > 50%
